Target: T1, recombinant human heparanase (active, 8 and 50 kDa sub-units, from baculovirus-infected Hi5 cells) (human, UniProt Q9Y251 36-109; Q9Y251 158-543)
T1 sequence (looked up) 1: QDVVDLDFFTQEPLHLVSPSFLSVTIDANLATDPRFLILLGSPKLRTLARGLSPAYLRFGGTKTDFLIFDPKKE
T1 sequence (looked up) 2: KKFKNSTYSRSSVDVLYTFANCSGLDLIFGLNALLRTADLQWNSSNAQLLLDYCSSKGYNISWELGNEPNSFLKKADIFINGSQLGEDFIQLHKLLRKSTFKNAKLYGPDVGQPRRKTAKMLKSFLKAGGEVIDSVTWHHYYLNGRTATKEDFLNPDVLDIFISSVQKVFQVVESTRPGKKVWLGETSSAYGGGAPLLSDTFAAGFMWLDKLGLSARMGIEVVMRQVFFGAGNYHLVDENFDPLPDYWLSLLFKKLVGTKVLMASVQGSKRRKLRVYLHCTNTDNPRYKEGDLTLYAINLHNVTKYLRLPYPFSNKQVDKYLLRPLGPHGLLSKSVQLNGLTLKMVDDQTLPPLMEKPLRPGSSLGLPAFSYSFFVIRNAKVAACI
Experiment: cell-based or functional assay
measured_metric: Inhibition of recombinant human heparanase %, Assay 1
Respond with a number, then the unit of measure.

monoclonal antibody 7B9.1 (antibody, V domains shown, Fully human (XenoMouse) antibody) VH: QVQLVESGGGVVQPGRSLRLSCAASGFTFSSYGMHWVRQAPGKGLEWVAVIWYDGSNKYYADSVKGRFTISRDNSKNTLYLQMNSLRAEDTAVYYCAREGAPYSSSDAFDIWGQGTMVTVSS VL: QSVLTQPPSVSGAPGQRVTISCTGSSSNIGANYDVHWYQQLPGTAPKLLIYGDNNRPSGVPDRFSGSKSGTSASLAITGLQAEDEADYYCQSYDSSLSGSVFGGGTKLTVL	63%

Kindly review the next binder as well.
**Q:** State, in one line, measured Inhibition of recombinant human heparanase %, Assay 1 of monoclonal antibody 15A11.1 (antibody, V domains shown, Fully human (XenoMouse) antibody; also called ATCC PTA-9490) VH: QVQLVQSGAEVKKPGASVKVSCKVSGDTLTELSMHWVRQTPGKGLEWMGGFDPEDGETIYAQKFQGRVTMTGDTSTDTAYMELSSLRSEDTAVYYCATEGDYGDSEEYYYYYGMDVWGQGTTVTVSS VL: DIQMTQSPSSLSASVGDRVTITCRASQGISNYLAWYQQKPGKVPKLLIYAASTLQSGVPSRFSGSGSGTDFTLTISSLQPEDVATYYCQKYNRAPFTFGPGTKVDIK
**A:** 75%
